Each item that follows carries a reported MIC Saccharomyces cerevisiae ATCC 9763.
system: Saccharomyces cerevisiae ATCC 9763; experiment: Antifungal activity in vitro, serial dilution in RPMI 1640; format: cell-based; conditions: Table 2B
Write the value in µg/mL as a bare number.

# compound C[C@@H]1[C@H](O)[C@@H](C)/C=C/C=C/CC/C=C/C=C/C=C/C=C/[C@H](O[C@@H]2O[C@H](C)[C@@H](O)[C@H](NC(=O)[C@H](N)c3ccccc3)[C@@H]2O)C[C@@H]2O[C@](O)(C[C@@H](O)C[C@@H](O)[C@H](O)CC[C@@H](O)C[C@@H](O)CC(=O)O[C@H]1C)C[C@H](O)[C@H]2C(=O)O ; its MIC Saccharomyces cerevisiae ATCC 9763 = 4

---

system: Candida tropicalis KKP 334; test: Antifungal activity in vitro, serial dilution in RPMI 1640; format: cell-based; conditions: Table 2A; RPMI 1640, pH 7.0
Reported Antifungal activity Candida tropicalis KKP 334 MIC values for a set of molecules
Respond numerically; units are µg/mL and should not be typed.

Example molecules with recorded Antifungal activity Candida tropicalis KKP 334 MIC:
MOLECULE	SYSTEM_NAME	TEST_VALUE
CC1OC(O[C@H]2/C=C/C=C/C=C/C=C/CC/C=C/C=C/[C@H](C)[C@@H](O)[C@@H](C)[C@H](C)OC(=O)C[C@H](O)C[C@H](O)C[C@H](O)CC[C@@H](O)[C@H](O)CC3(O)C[C@H](O)[C@@H](C(=O)O)[C@H](C2)O3)C(O)C(NCc2ccccc2)C1O (stereo partly drawn) [Compound N21, N-benzylnystatin A1]	Candida tropicalis KKP 334	4
C[C@@H]1[C@H](O)[C@@H](C)/C=C/C=C/CC/C=C/C=C/C=C/C=C/[C@H](O[C@@H]2O[C@H](C)[C@@H](O)[C@H](NC(=O)[C@@H](N)Cc3ccc([N+](=O)[O-])cc3)[C@@H]2O)C[C@@H]2O[C@](O)(C[C@@H](O)C[C@@H](O)[C@H](O)CC[C@@H](O)C[C@@H](O)CC(=O)O[C@H]1C)C[C@H](O)[C@H]2C(=O)O [Compound N40, N-L-(4-nitrophenyl)alanylnystatin A1]	Candida tropicalis KKP 334	8
CCN(CC1(O)OCC(O)C(O)C1O)C1C(O)C(C)OC(OC2C=CC=CC=CC=CCCC=CC=CC(C)C(O)C(C)C(C)OC(=O)CC(O)CC(O)CC(O)CCC(O)C(O)CC3(O)CC(O)C(C(=O)O)C(C2)O3)C1O (stereo not drawn) [Compound N29, N-fructosyl-N-ethylnystatin A1]	Candida tropicalis KKP 334	8

The molecule identified as CC1OC(O[C@H]2/C=C/C=C/C=C/C=C/CC/C=C/C=C/[C@H](C)[C@@H](O)[C@@H](C)[C@H](C)OC(=O)C[C@H](O)C[C@H](O)C[C@H](O)CC[C@@H](O)[C@H](O)CC3(O)C[C@H](O)[C@@H](C(=O)O)[C@H](C2)O3)C(O)C(NC(=O)[C@@H](N)Cc2ccccc2)C1O (stereo partly drawn) [Compound N34, N-L-phenylalanylnystatin A1] registered its Antifungal activity Candida tropicalis KKP 334 MIC at 8

According to the records, this molecule CC1OC(O[C@H]2/C=C/C=C/C=C/C=C/CC/C=C/C=C/[C@H](C)[C@@H](O)[C@@H](C)[C@H](C)OC(=O)C[C@H](O)C[C@H](O)C[C@H](O)CC[C@@H](O)[C@H](O)CC3(O)C[C@H](O)[C@@H](C(=O)O)[C@H](C2)O3)C(O)C(NC(=S)NCCCN(C)C)C1O (stereo partly drawn) [Compound N17] displays Antifungal activity Candida tropicalis KKP 334 MIC of 4

Looking up CC1OC(O[C@H]2/C=C/C=C/C=C/C=C/CC/C=C/C=C/[C@H](C)[C@@H](O)[C@@H](C)[C@H](C)OC(=O)C[C@H](O)C[C@H](O)C[C@H](O)CC[C@@H](O)[C@H](O)CC3(O)C[C@H](O)[C@@H](C(=O)O)[C@H](C2)O3)C(O)C(NC2CC(=O)N(Cc3ccccc3)C2=O)C1O (stereo partly drawn) [Compound N1, N—(N′-benzylsuccinimidyl)nystatin A1] , I found its Antifungal activity Candida tropicalis KKP 334 MIC recorded as 8
